Known PBM binding z-score of a selection of sequences
test system: RARg:RXRa (NR concentration 270 nM, RXRa partner concentration 90 nM); test: PBM binding z-score (relative to random genomic background probes); higher = stronger binding; sequences stand for … in GC…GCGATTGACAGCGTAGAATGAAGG
ENDPOINT LABEL: PBM binding z-score

{"SEQ": "ATCTGTAGGTAACAAGTTCAGTGAAAGAGAGGAC", "TARGET OR SYSTEM": "RARg:RXRa (NR concentration 270 nM, RXRa partner concentration 90 nM)", "ENDPOINT LABEL": "PBM binding z-score", "REPORTED RESULT": 1.44}
{"SEQ": "AGAATGAGGTTACCAAAGATCAGGGAAACGCTTG", "TARGET OR SYSTEM": "RARg:RXRa (NR concentration 270 nM, RXRa partner concentration 90 nM)", "ENDPOINT LABEL": "PBM binding z-score", "REPORTED RESULT": 2.19}
{"SEQ": "CGAACTAGGTCATCCAGGAAAGTGAATACATTGA", "TARGET OR SYSTEM": "RARg:RXRa (NR concentration 270 nM, RXRa partner concentration 90 nM)", "ENDPOINT LABEL": "PBM binding z-score", "REPORTED RESULT": 4.03}
{"SEQ": "ACTCGGAGGACAAAGGTTAGAGCTACGCCAGTGA", "TARGET OR SYSTEM": "RARg:RXRa (NR concentration 270 nM, RXRa partner concentration 90 nM)", "ENDPOINT LABEL": "PBM binding z-score", "REPORTED RESULT": 2.94}
{"SEQ": "CAAACTAGGTCACAGAGGTGAAAGTCCGTGCGTA", "TARGET OR SYSTEM": "RARg:RXRa (NR concentration 270 nM, RXRa partner concentration 90 nM)", "ENDPOINT LABEL": "PBM binding z-score", "REPORTED RESULT": 5.15}
{"SEQ": "CCTACTGGGCCACGAAAGGTCATGGATTCAGTGA", "TARGET OR SYSTEM": "RARg:RXRa (NR concentration 270 nM, RXRa partner concentration 90 nM)", "ENDPOINT LABEL": "PBM binding z-score", "REPORTED RESULT": 5.28}
{"SEQ": "CCGACTGGGGCAGAAAGGCTACCATACCATCCGG", "TARGET OR SYSTEM": "RARg:RXRa (NR concentration 270 nM, RXRa partner concentration 90 nM)", "ENDPOINT LABEL": "PBM binding z-score", "REPORTED RESULT": -0.0591}
{"SEQ": "ATCTCTAGGTAACTAAGTTCAGTGAATGCCGAAC", "TARGET OR SYSTEM": "RARg:RXRa (NR concentration 270 nM, RXRa partner concentration 90 nM)", "ENDPOINT LABEL": "PBM binding z-score", "REPORTED RESULT": 1.03}
{"SEQ": "GGAACGAGGGCAAGTTGATAGCTGAGTTTGATGG", "TARGET OR SYSTEM": "RARg:RXRa (NR concentration 270 nM, RXRa partner concentration 90 nM)", "ENDPOINT LABEL": "PBM binding z-score", "REPORTED RESULT": 1.45}
{"SEQ": "TCTTGTAGATCAAACGTTAAGAAAGCCGAAGCCT", "TARGET OR SYSTEM": "RARg:RXRa (NR concentration 270 nM, RXRa partner concentration 90 nM)", "ENDPOINT LABEL": "PBM binding z-score", "REPORTED RESULT": -0.146}
{"SEQ": "TCTTGTAGATCAATAGAGGTTAAGAAAGTGCGCT", "TARGET OR SYSTEM": "RARg:RXRa (NR concentration 270 nM, RXRa partner concentration 90 nM)", "ENDPOINT LABEL": "PBM binding z-score", "REPORTED RESULT": 0.791}
{"SEQ": "GCTGCTAGGTCAGGTTGGTCAGCTTACGGGTACG", "TARGET OR SYSTEM": "RARg:RXRa (NR concentration 270 nM, RXRa partner concentration 90 nM)", "ENDPOINT LABEL": "PBM binding z-score", "REPORTED RESULT": 2.41}
